Would you kindly list viability, T/C for each of these compounds?
# Test system: KRAS patient-derived spheroids with HUVEC/MSC, viability;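 further: spheroids exposed to agents for 7 days; 100% = DMSO vehicle control viability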
# ASSAY NOTES: Anticancer human tumor 323965-272-R-J2-PDC patient-derived pancreatic carcinoma cell line growth inhibition [KRAS2]
# PARTICULARS: compound 0.316 µM; active compounds read low

Can you look up viability, T/C on KRAS patient-derived spheroids with HUVEC/MSC, viability for CC(=O)OC12COC1CC(O)C1(C)C(=O)C(O)C3=C(C)C(OC(=O)C(O)C(NC(=O)OC(C)(C)C)c4ccccc4)CC(O)(C(OC(=O)c4ccccc4)C21)C3(C)C (stereo not drawn) ?
36.5% [middle of 5 runs]

Can you look up viability, T/C on KRAS patient-derived spheroids with HUVEC/MSC, viability for CNCc1ccccc1-c1csc(C(C)Nc2nc(C)nc3cc(OC)c(OC)cc23)c1 (stereo not drawn) ?
89.6% [middle of 16 runs]

Can you look up viability, T/C on KRAS patient-derived spheroids with HUVEC/MSC, viability for CC(C)NCC(C(=O)N1CCN(c2ncnc3c2C(C)CC3O)CC1)c1ccc(Cl)cc1 (stereo not drawn) ?
84.9% [middle of 5 runs]

Can you look up viability, T/C on KRAS patient-derived spheroids with HUVEC/MSC, viability for CC1(C)CCC(CN2CCN(c3ccc(C(=O)NS(=O)(=O)c4ccc(NCC5CCOCC5)c([N+](=O)[O-])c4)c(Oc4cnc5[nH]ccc5c4)c3)CC2)=C(c2ccc(Cl)cc2)C1 ?
98% [middle of 5 runs]

Can you look up viability, T/C on KRAS patient-derived spheroids with HUVEC/MSC, viability for COC(=O)c1ccc2c(C(=Nc3ccc(N(C)C(=O)CN4CCN(C)CC4)cc3)c3ccccc3)c(O)[nH]c2c1 ?
101% [middle of 5 runs]

Can you look up viability, T/C on KRAS patient-derived spheroids with HUVEC/MSC, viability for COc1cc(OC)cc(N(CCNC(C)C)c2ccc3ncc(-c4cnn(C)c4)nc3c2)c1 ?
102% [middle of 5 runs]

Can you look up viability, T/C on KRAS patient-derived spheroids with HUVEC/MSC, viability for CCNC(=O)CC1N=C(c2ccc(Cl)cc2)c2cc(OC)ccc2-n2c(C)nnc21 (stereo not drawn) ?
62.2% [middle of 5 runs]

Can you look up viability, T/C on KRAS patient-derived spheroids with HUVEC/MSC, viability for Cn1nccc1Nc1nccc(-c2cc3c(s2)C(C)(C)N(CCN2CCOCC2)C3=O)n1 ?
77.6% [middle of 5 runs]
